Assay: Acute toxicity determined after intravenal administration in mice
Type: organism-based
Details: mouse, in vivo, iv
Answer each item with its documented log10(LD50).
// units: mg/kg (pre-log); metric: LD50; scale: log10

Reported log10(LD50) ( `CC1(C)C=C(C(=O)NCCCNCc2ccccc2O)C(C)(C)N1` ) = 1.45

Reported log10(LD50) ( CC1(C)CC(C(=O)NCCCNCc2ccccc2Cl)C(C)(C)N1 (centres undefined) ) = 1.49

Reported log10(LD50) ( `COc1cc(OCc2ccccc2)ccc1CNCCCNC(=O)C1=CC(C)(C)NC1(C)C` ) = 1.11

Reported log10(LD50) ( `COc1ccc(CNCCCNC(=O)C2=CC(C)(C)NC2(C)C)c(OC)c1` ) = 1.20

Reported log10(LD50) ( `CCN(CC)C(=O)COc1c(CNCCCNC(=O)C2=CC(C)(C)NC2(C)C)cccc1OC` ) = 0.32

Reported log10(LD50) ( `Cc1cccc(C)c1NC(=O)C1=CC(C)(C)NC1(C)C` ) = 0.78

Reported log10(LD50) ( `C=CCOc1cccc(CNCCCNC(=O)C2=CC(C)(C)NC2(C)C)c1` ) = 1.53

Reported log10(LD50) ( CC1(C)C=C(C(=O)NCCCN2C(=O)C3CCCCC3C2=O)C(C)(C)N1 (centres undefined) ) = 2.03

Reported log10(LD50) ( Cc1nc2ccccc2c(=O)n1CCCNC(=O)C1CC(C)(C)NC1(C)C (centres undefined) ) = 1.72

Reported log10(LD50) ( `CC1(C)C=C(C(=O)NCCNCc2ccc(Cl)cc2)C(C)(C)N1` ) = 1.91

Reported log10(LD50) ( `CC1(C)C=C(C(=O)NCCCNCc2ccc(Oc3ccccc3)cc2)C(C)(C)N1` ) = 1.36

Reported log10(LD50) ( `CN(Cc1ccccc1)C(=O)C1=CC(C)(C)NC1(C)C` ) = 1.71

Reported log10(LD50) ( `CC1(C)C=C(C(=O)NCc2ccc(Cl)cc2)C(C)(C)N1` ) = 1.69

Reported log10(LD50) ( Cc1cccc(C)c1OCC(C)NC(=O)C1CC(C)(C)NC1(C)C (centres undefined) ) = 0.30

Reported log10(LD50) ( CC1(C)C=C(C(=O)NCC(O)CNCc2cccs2)C(C)(C)N1 (centres undefined) ) = 1.69

Reported log10(LD50) ( `CC1(C)C=C(C(=O)NCCCNC(=O)COc2ccc(Cl)cc2Cl)C(C)(C)N1` ) = 1.30

Reported log10(LD50) ( `CC1(C)C=C(C(=O)NCCNC(=O)c2ccc3c(c2)OCO3)C(C)(C)N1` ) = 1.98

Reported log10(LD50) ( `CC1(C)C=C(C(=O)NCCCNCc2ccc(OCc3ccccc3)cc2)C(C)(C)N1` ) = 1.30

Reported log10(LD50) ( Cc1cccc(C)c1OCC(C)NC(=O)C1=CC(C)(C)NC1(C)C (centres undefined) ) = 1.04

Reported log10(LD50) ( Cc1cccc(C)c1NC(=O)C(C)NC(=O)C1=CC(C)(C)NC1(C)C (centres undefined) ) = 1.18

Reported log10(LD50) ( `CC1(C)C=C(C(=O)NCCNC(=O)COc2ccc(Cl)cc2Cl)C(C)(C)N1` ) = 1.57

Reported log10(LD50) ( Cc1cccc(C)c1NC(=O)C(NC(=O)C1=CC(C)(C)NC1(C)C)c1ccccc1 (centres undefined) ) = 0.88

Reported log10(LD50) ( `CC(=O)Nc1ccc(CNCCNC(=O)C2=CC(C)(C)NC2(C)C)cc1` ) = 1.40

Reported log10(LD50) ( `CC1(C)C=C(C(=O)NCCCNCc2ccccc2OCC(N)=O)C(C)(C)N1` ) = 1.00

Reported log10(LD50) ( `CC1(C)C=C(C(=O)NCCCNCc2cccc(O)c2)C(C)(C)N1.Cl` ) = 1.11

Reported log10(LD50) ( `CC1(C)C=C(C(=O)NCCCNCc2ccncc2)C(C)(C)N1` ) = 1.97

Reported log10(LD50) ( `CC1(C)C=C(C(=O)NCCCNCc2ccccc2OCc2ccccc2)C(C)(C)N1` ) = 0.95

Reported log10(LD50) ( CC1(C)C=C(C(=O)NC(C(N)=O)c2ccccc2)C(C)(C)N1 (centres undefined) ) = 1.88

Reported log10(LD50) ( C=CCOc1ccccc1CNCCCNC(=O)C1CC(C)(C)NC1(C)C (centres undefined) ) = 1.11

Reported log10(LD50) ( `CC1(C)C=C(C(=O)NCCNC(=O)Cc2cccs2)C(C)(C)N1` ) = 1.93

Reported log10(LD50) ( `C=CCOc1ccc(CNCCCNC(=O)C2=CC(C)(C)NC2(C)C)cc1` ) = 1.45

Reported log10(LD50) ( `Cc1cc(Cl)ccc1OCC(=O)NCCCNC(=O)C1=CC(C)(C)NC1(C)C` ) = 1.48

Reported log10(LD50) ( `CC1(C)C=C(C(=O)NCc2ccncc2)C(C)(C)N1` ) = 2.12

Reported log10(LD50) ( `CC1(C)C=C(C(=O)NCc2ccccc2)C(C)(C)N1` ) = 1.53

Reported log10(LD50) ( CC(NCCNC(=O)C1=CC(C)(C)NC1(C)C)c1cccs1 (centres undefined) ) = 1.72

Reported log10(LD50) ( C=CCc1ccc(OC(C)C(=O)NCCCNC(=O)C2=CC(C)(C)NC2(C)C)c(OC)c1 (centres undefined) ) = 0.88

Reported log10(LD50) ( `C=CCOc1ccccc1CNCCCNC(=O)C1=CC(C)(C)NC1(C)C` ) = 1.26

Reported log10(LD50) ( `C=CCOc1c(CNCCCNC(=O)C2=CC(C)(C)NC2(C)C)cccc1OC` ) = 1.18

Reported log10(LD50) ( `Cc1cccc(C)c1NC(=O)CNC(=O)C1=CC(C)(C)NC1(C)C` ) = 1.72

Reported log10(LD50) ( `COc1cccc(CNCCCNC(=O)C2=CC(C)(C)NC2(C)C)c1O` ) = 1.41

Reported log10(LD50) ( CC1(C)C=C(C(=O)NCCN2C(=O)C3CC=CCC3C2=O)C(C)(C)N1 (centres undefined) ) = 2.26

Reported log10(LD50) ( `CC1(C)C=C(C(=O)NCCNC(=O)c2cccs2)C(C)(C)N1` ) = 1.97

Reported log10(LD50) ( CC1(C)C=C(C(=O)NCCCNC(=O)C2CC=CCC2C(=O)O)C(C)(C)N1 (centres undefined) ) = 2.54

Reported log10(LD50) ( CC1(C)CC(C(=O)NCCCNCc2ccccc2OCc2ccccc2)C(C)(C)N1 (centres undefined) ) = 1.11
